test: chemical genetic growth profiling, strain panel (AID 1159580);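 also: tested at 20 µM; growth read once vehicle control cultures reached saturation at 30 °C; 1 = growth at the plate median or of vehicle wells; lower values mean less growth of the strain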; conditions: S. cerevisiae deletion strains, growth OD, locus YGL173C, strain kem1, active compounds read low
Among all 5,500 compounds or so, about 2,000 (36%) were called active. Roughly 18% stayed inconclusive and do not appear here. This is one part of the list.
Task for the reader: assign each of the following compounds its reported normalized growth.
Lab note: jot down the number only; don't add units.

Problem: Any idea what its normalized growth is? The compound is CCC1(C2=NCCN2)Cc2ccccc2O1 (stereo not given)
Result: 1.01

Problem: State the recorded normalized growth for this entry: CCCCCCCCCCCCCCCC(=O)OC[C@H](NC(=O)C(Cl)Cl)[C@H](O)c1ccc([N+](=O)[O-])cc1
Result: 1.05

Problem: Fill in the blank: the reported normalized growth of O=C(N[C@@H](CO)[C@H](O)c1ccc([N+](=O)[O-])cc1)C(Cl)Cl is ____.
Result: 1.03

Problem: What does the data say about its normalized growth? Entry: CC(=O)OC1CCC23CC1(C)CCC2C(C)(C)CC3OC(C)=O (stereo not given)
Result: 1.03

Problem: Can you look up the measured normalized growth of Cc1cc(O)c2c(c1)C(=O)c1cccc(O)c1C2=O for me?
Result: 1

* * *

test: chemical genetic growth profiling, strain panel (AID 1159580);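 also: tested at 20 µM; growth read once vehicle control cultures reached saturation at 30 °C; 1 = growth at the plate median or of vehicle wells; lower values mean less growth of the strain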; settings: S. cerevisiae deletion strains, growth OD, locus YGR135W, strain pre9, active compounds read low
The whole screen tested about 5,500 compounds, of which about 2,000 (36%) were called active. Not shown: some 18% with an inconclusive outcome. Some of the results follow.
reported-metric: normalized growth

Problem: Look up normalized growth for this compound: Cn1cnc2c1c(=O)[nH]c(=O)n2C
Result: 1.02 (inactive)

Problem: Entry Cn1c(=O)[nH]c2nc[nH]c2c1=O has what normalized growth?
Result: 1.01 (inactive)

Problem: Recorded normalized growth for Cn1c(=O)c2c(ncn2C)n(C)c1=O , please?
Result: 0.999 (inactive)

Problem: Record request: normalized growth value, item Oc1cccc2cccnc12
Result: 0.0644 (active)

Problem: Entry CC(=O)CCCCn1c(=O)c2c(ncn2C)n(C)c1=O : reported normalized growth = ?
Result: 0.967 (inactive)

Problem: Requested field: normalized growth. Item: C[N+]1(C)CCCC(OC(=O)C(O)(c2ccccc2)c2ccccc2)C1 (configuration not stated)
Result: 0.937 (inactive)

Problem: Quick one: normalized growth for Cn1c(=O)[nH]c2ncn(C)c2c1=O ?
Result: 0.992 (inactive)

* * *

assay: chemical genetic growth profiling, strain panel (AID 1159580);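 also: tested at 20 µM; growth read once vehicle control cultures reached saturation at 30 °C; 1 = growth at the plate median or of vehicle wells; lower values mean less growth of the strain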; conditions: S. cerevisiae deletion strains, growth OD, locus YOR231W, strain MKK1, active compounds read low
Screen size: about 5,500 compounds; about 2,000 (36%) were called active. Inconclusive results (about 18%) are left out. The list shows a part of the results.
Assignment: determine reported normalized growth for the given molecules.
Answer with the value's number alone.

Problem: Would you mind telling me what normalized growth value was observed for O=[N+]([O-])c1ccc(Sc2ccccc2)c([N+](=O)[O-])c1 ?
Result: 0.64

Problem: Suppose we examine the molecule CC1(C)CC23C(=O)CCC(O)C2(C)CCC13 (stereo not given) ; what normalized growth value has been reported?
Result: 1.05

Problem: For the molecule CC(C)[C@@H]1CC[C@@H](C)C[C@H]1OC(=O)c1ccccc1 , what normalized growth is on record?
Result: 1.02

Problem: Need normalized growth of O=c1c(O)cccc2cc(O)c(O)c(O)c12 , thanks.
Result: 0.665

Problem: Give the measured normalized growth of NC(=NCCCCCCN=C(N)N=C(N)Nc1ccc(Cl)cc1)N=C(N)Nc1ccc(Cl)cc1 .
Result: 0.0973

Problem: Give its normalized growth value. Item: Cn1ncc(-c2nc(-c3ccc(Cl)cc3)cs2)c1N
Result: 0.96

Problem: May I ask what normalized growth has been recorded for N/C(=N/OCc1c(F)cccc1Cl)c1ccc(Cl)cc1 ?
Result: 0.932

Problem: Give the measured normalized growth of C[C@]12[C@H](O)CC3C(CC[C@@H]4C[C@@H](O)CC[C@]34C)[C@@]1(O)CC[C@@H]2C1=CC(=O)OC1 (stereo not given in full) .
Result: 1

Problem: Query: normalized growth; subject: FC(F)(F)c1ccncc1-c1nc(-c2ccc(Cl)cc2)cs1
Result: 0.766

Problem: // normalized growth lookup, key: C[C@H]1C(=O)CCC2[C@]3(C)CC[C@@]4(C)C5CC(C)(C)CC[C@]5(C)CC[C@]4(C)C3CC[C@@]21C (stereo not given in full)
Result: 0.985

* * *

test: chemical genetic growth profiling, strain panel (AID 1159580);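 also: tested at 20 µM; growth read once vehicle control cultures reached saturation at 30 °C; 1 = growth at the plate median or of vehicle wells; lower values mean less growth of the strain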; conditions: S. cerevisiae deletion strains, growth OD, locus YNL250W, strain rad50
Among all 5,500 compounds or so, about 2,000 (36%) were called active. About 18% were inconclusive and are not listed. Cut-off read from the data, not from the text of the source: active = normalized growth mostly below about 0.91 (no sharp cut-off); inconclusive = no clear call, values can overlap the other calls; inactive = mostly above about 0.92. The list shows a part of the results.
Please reply with one of these outcomes: yes (active), no (inactive)

Problem: Test call for this compound, please: COc1ccc([C@@H](C)C(=O)c2ccc(O)cc2O)cc1
Result: no

Problem: Fill in: this test's call for O=C(O)c1cc(=O)c2ccccc2[nH]1 is ___
Result: no

Problem: Tell me the recorded outcome of this test for COC(=O)C[C@H]1C(C)(C)[C@H](O)[C@@H]2CC3=C4CC(O)O[C@@H](c5ccoc5)[C@]4(C)CCC3[C@@]1(C)C2=O (some centres not stated) .
Result: no

Problem: State the result this test recorded for COc1cc2c(cc1OC)C(C)NCC2 (configuration not stated) .
Result: no

Problem: Assay result, entry CC(=O)O[C@@H]1C2CC[C@@H]3C1(C[C@@H](O)[C@@]1(O)[C@@H](C[C@H](O)C1(C)C)[C@]3(C)O)C[C@@]2(C)O (some centres not stated) — outcome?
Result: no

Problem: Kindly provide the recorded test outcome for the following compound: CCCCN(CC)c1c([N+](=O)[O-])cc(C(F)(F)F)cc1[N+](=O)[O-]
Result: no

Problem: I would be grateful if you could indicate the recorded call for CCCC(=O)Nc1ccc(OCC(O)CNC(C)C)c(C(C)=O)c1 (configuration not stated) .
Result: no

Problem: Query: recorded result category for CNC(=O)Oc1ccccc1OC(C)C in this test
Result: no

Problem: Hi team, can someone confirm the assay call for C[C@H]1C(=O)CCC2[C@]3(C)CC[C@@]4(C)C5CC(C)(C)CC[C@]5(C)CC[C@]4(C)C3CC[C@@]21C (some centres not stated) ?
Result: no

Problem: Look up the recorded call for O=C(/C=C/c1ccc(O)cc1)c1ccc(O)cc1O in this test.
Result: no

Problem: Which outcome was assigned to CCC[C@@H]1C[C@@H](C(=O)N[C@H]([C@H]2O[C@H](SC)[C@H](O)[C@@H](O)[C@H]2O)[C@H](C)O)N(C)C1 in this test?
Result: no

Problem: Give the logged outcome of this assay for the following compound: O=C(/C=C/c1ccccc1)c1c(O)cc(O)cc1O
Result: no

Problem: Dear all, I need the recorded test outcome for O=C(/C=C/c1ccccc1)c1ccc(O[C@@H]2O[C@H](CO)[C@@H](O)[C@H](O)[C@H]2O)cc1O , thank you.
Result: yes

Problem: What did this assay record as the result for CN1CCCCC1c1ccc(-c2cccnc2)nc1 (configuration not stated) ?
Result: no

Problem: Given O=C(CCc1ccc(O)cc1)c1c(O)cc(O)cc1O , state the outcome it received in this test.
Result: no

Problem: Given Cc1c(NC(C)C)c(=O)n(-c2ccccc2)n1C , state the outcome it received in this test.
Result: no

Problem: For CC(=O)NS(=O)(=O)c1ccc(N)cc1 , what call appears in the results of this test?
Result: no

Problem: Entry C[C@]12CC[C@@H](O)C[C@H]1CCc1ccccc12 : call = ?
Result: no

Problem: In this assay, the call recorded for COc1cc2cccc(OC)c(=O)c2c(OC)c1OC was what?
Result: no

Problem: Query: recorded result category for COc1cc(Cc2cnc(N)nc2N)cc(OC)c1OC in this test
Result: no

Problem: Call for entry C[C@]12[C@H](O)CC3C(CC[C@@H]4C[C@@H](O)CC[C@]34C)[C@@]1(O)CC[C@@H]2C1=CC(=O)OC1 (some centres not stated) :
Result: no

Problem: What is the recorded call for this compound in the test? CON
Result: no

Problem: What was the test verdict on CC(C)N1C(=O)c2ccccc2NS1(=O)=O ?
Result: no

Problem: Check the results log: what was the call for CNC(=O)Oc1cccc2c1OC(C)(C)C2 ?
Result: no

Problem: Dear colleague, could you share the recorded outcome for Oc1cccc2cccnc12 when you have a moment?
Result: yes

Problem: Test call, this compound: COC(=O)CC1C(C)(C)C(=O)C2CC3(O)C4=CC(=O)OC(c5ccoc5)C4(C)CCC3C1(C)C2=O (configuration not stated)
Result: no

Problem: GET /call?item= COc1ccc(NS(=O)(=O)c2ccc(N)cc2)nn1 returns the recorded outcome of this test.
Result: no

Problem: Test call for this compound, please: O=C1NS(=O)(=O)c2ccccc21
Result: no

Problem: Entry COC1=CC23CCCN2CCc2cc4c(cc2C3C1O)OCO4 (configuration not stated) : call = ?
Result: no

Problem: Lab log entry: CC(=O)OC1CCC2(O)CC1(C)CCC1C2CC1(C)C (configuration not stated) — outcome as called in the assay?
Result: no

Problem: Given COC(=O)c1cc(OC)c(=O)c2c(OC)c(OC)ccc2c1 , state the outcome it received in this test.
Result: no

Problem: Field: outcome | Entry: COP(=O)(NC(C)=O)SC (configuration not stated)
Result: no

Problem: Can you look up the reported call for COc1cc(O)ccc1C(C)=O for me?
Result: no

Problem: Assay outcome for CN1C(=O)CC[C@H]1c1cccnc1 : what was it?
Result: no

Problem: # outcome recorded in this test, key = O=c1c(O)c(-c2ccccc2)oc2cc(O)ccc12
Result: no

Problem: How did this test come out for ClC1C(Cl)C(Cl)C(Cl)C(Cl)C1Cl (configuration not stated) ?
Result: no

Problem: Check the results log: what was the call for C[N+]12CCC(CC1)C(OC(=O)C(O)(c1ccccc1)c1ccccc1)C2 (configuration not stated) ?
Result: no

Problem: Please share the test call associated with CNC(=O)N(C)c1nnc(C(C)(C)C)s1 .
Result: no

Problem: So what was the verdict on C[N+]1(C)CCCC(OC(=O)C(O)(c2ccccc2)c2ccccc2)C1 (configuration not stated) in this test?
Result: no

Problem: Look up the recorded call for CC[C@H]1OC(=O)[C@H](C)[C@@H](O[C@H]2C[C@@](C)(OC)[C@@H](O)[C@H](C)O2)[C@H](C)[C@@H](O[C@@H]2O[C@H](C)C[C@H](N(C)C)[C@H]2O)[C@](C)(O)C[C@@H](C)/C(=N/OCOCCOC)[C@H](C)[C@@H](O)[C@]1(C)O in this test.
Result: no

Problem: Recorded call for OC[C@H]1O[C@@H](Oc2ccc(O)cc2)[C@H](O)[C@@H](O)[C@@H]1O ?
Result: no

Problem: // return assay outcome for CC(C)[C@@H]1CC[C@@H](C)C[C@H]1OC(=O)c1ccccc1
Result: no
